I'd appreciate it if you could supply glycan array binding signal (z-score) values for the items below.
- Measurement Target: Fuc(a1-2)Gal(b1-4)GlcNAc(b1-3)Gal(b1-4)GlcNAc(b1-3)Gal(b1-4)GlcNAc
- Experiment Notes: glycan array binding signal (z-score within array); higher = stronger binding
- Condition Info: glycan notation: IUPAC condensed, linker removed
This excerpt belongs to a sample that is enriched for the strongest signals.
Numbers only.

Binder	Attribute Measured	Measured
Fm1D (Escherichia coli) (protein) FSCNVDGGSSIGAGTTSVYVNLDPVIQPGQNLVVDLSQHISCWNDYGGWYDTDHINLVQGSAFAGSLQSYKGSLYWNNVTYPFPLTTNTNVLDIGDKTPMPLPLKLYITPVGAAGGVVIKAGEVIARIHMYKIATLGSGNPRNFTWNIISNNSVVMPTHHHHHH	glycan array binding signal (z-score)	-0.144

# context switch: different binder, same glycan array binding signal (z-score)
Measured glycan array binding signal (z-score) of LecB LY19 (Pseudomonas aeruginosa) (protein) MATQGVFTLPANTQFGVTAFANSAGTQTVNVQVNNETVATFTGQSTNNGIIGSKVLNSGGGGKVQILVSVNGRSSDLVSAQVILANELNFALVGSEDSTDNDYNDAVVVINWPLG : 3.69
